target: ACE (Ovis aries, UniProt A0ACI6QSL6); experiment: In vitro colorimetric ACE inhibition assay (HHL substrate, hippuric acid release, 410 nm); type: biochemical, sheep
Sequence (A0ACI6QSL6 entry or part of it): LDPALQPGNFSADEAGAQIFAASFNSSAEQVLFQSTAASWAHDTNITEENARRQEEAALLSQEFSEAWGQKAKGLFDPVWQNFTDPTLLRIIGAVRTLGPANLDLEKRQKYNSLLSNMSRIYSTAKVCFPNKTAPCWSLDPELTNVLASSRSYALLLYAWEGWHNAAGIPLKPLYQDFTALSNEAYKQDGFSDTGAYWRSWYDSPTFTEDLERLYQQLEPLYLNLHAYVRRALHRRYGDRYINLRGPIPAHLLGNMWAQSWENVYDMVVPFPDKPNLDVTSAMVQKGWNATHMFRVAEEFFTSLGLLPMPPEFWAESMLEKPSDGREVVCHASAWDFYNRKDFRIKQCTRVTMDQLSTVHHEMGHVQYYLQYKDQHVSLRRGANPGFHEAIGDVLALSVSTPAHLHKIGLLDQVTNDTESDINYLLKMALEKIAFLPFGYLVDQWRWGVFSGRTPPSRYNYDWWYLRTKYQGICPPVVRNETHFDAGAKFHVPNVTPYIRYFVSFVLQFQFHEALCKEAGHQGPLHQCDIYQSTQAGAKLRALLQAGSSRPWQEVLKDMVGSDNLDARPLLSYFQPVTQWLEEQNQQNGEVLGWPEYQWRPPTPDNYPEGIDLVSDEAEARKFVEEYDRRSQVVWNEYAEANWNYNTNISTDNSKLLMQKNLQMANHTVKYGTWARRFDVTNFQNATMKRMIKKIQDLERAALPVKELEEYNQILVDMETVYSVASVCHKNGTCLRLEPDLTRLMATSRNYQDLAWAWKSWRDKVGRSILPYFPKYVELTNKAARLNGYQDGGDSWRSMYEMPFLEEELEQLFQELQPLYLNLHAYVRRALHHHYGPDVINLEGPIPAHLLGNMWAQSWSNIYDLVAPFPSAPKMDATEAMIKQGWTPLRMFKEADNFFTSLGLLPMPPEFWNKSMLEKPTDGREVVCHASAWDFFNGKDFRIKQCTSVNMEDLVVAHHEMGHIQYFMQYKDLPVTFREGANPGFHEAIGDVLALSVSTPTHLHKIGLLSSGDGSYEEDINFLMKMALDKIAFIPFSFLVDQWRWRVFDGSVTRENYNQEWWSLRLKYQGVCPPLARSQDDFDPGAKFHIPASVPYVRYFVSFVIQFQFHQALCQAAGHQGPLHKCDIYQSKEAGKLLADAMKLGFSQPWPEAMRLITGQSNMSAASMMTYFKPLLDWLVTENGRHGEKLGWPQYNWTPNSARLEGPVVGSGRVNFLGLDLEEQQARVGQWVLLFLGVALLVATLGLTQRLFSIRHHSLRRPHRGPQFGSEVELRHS
value_type: IC50 (nM)
One number for each entry, in nM.

Asked: Given NCCCC[C@H](N[C@@H](CCc1ccccc1)C(=O)O)C(=O)N1CCC[C@H]1C(=O)O [Lisinopril, reference compound] , state its recorded IC50.
Given back: 300
